From: PubChem BioAssay AID248

// values below are reported T/C
- Tested on: L1210 leukemia ip in BDF1 mice, survival T/C
- protocol: NCI In Vivo Anticancer Drug Screen. Data for tumor model L1210 Leukemia (intraperitoneal) in B6D2F1 (BDF1) mice
- protocol-conditions: endpoint: mean survival time; dose: 150.0 mg/kg/injection; schedule: Q04DX003 (ip); vehicle: Klucel (hydroxypropylcellulose) (HPC); higher = longer survival
Inconclusive results and toxic doses are left out.
attribute-measured: T/C

> print(dat)
                                   molecule                              study.system  attribute.measured            result
1        COC(=O)c1coc(C(=O)N2CCCC2)c1C(=O)O  L1210 leukemia ip in BDF1 mice, survival T/C                 T/C  105 % of control
2                     Cc1cccc2sc(=S)[nH]c12  L1210 leukemia ip in BDF1 mice, survival T/C                 T/C   93 % of control
3                        O=CNc1ccc2ccccc2c1  L1210 leukemia ip in BDF1 mice, survival T/C                 T/C  103 % of control
4              CSc1ccc(NC(=O)Sc2ccccc2C)cc1  L1210 leukemia ip in BDF1 mice, survival T/C                 T/C   87 % of control
5  CCOC(=O)C(O)(CC)c1ccncc1Br (stereo not given)  L1210 leukemia ip in BDF1 mice, survival T/C                 T/C   91 % of control
